Hello, the source for this data is patent US20100304426A1, in case you need it.

# TEST DETAILS: clinical
# CONDITION LABEL: female, human, in vivo, po, 200 mg, Cmax
OBSERVED PROPERTY: Cmax

Lookup result for CC(=O)[C@H]1CC[C@H]2[C@@H]3CCC4=CC(=O)CC[C@]4(C)[C@H]3CC[C@]12C ; measured Cmax: 0.62 to 1.6 ng/mL

* * *

# TEST DETAILS: clinical
# CONDITION LABEL: female, human, in vivo, po, 200 mg, AUClast
OBSERVED PROPERTY: AUC(0-t) (ng·h/mL)
Numbers only here, please. The scale is ng·h/mL.

Lookup result for CC(=O)[C@H]1CC[C@H]2[C@@H]3CCC4=CC(=O)CC[C@]4(C)[C@H]3CC[C@]12C ; measured AUC(0-t): 2.11
